Where do the numbers come from? From patent US10517889B2.

system: human SMAD7 mRNA; experiment: Dose-dependent inhibition of human SMAD7 mRNA expression in Hep3B cells (Example 3, Study 1 and 2); type: cell-based; settings: electroporation, Study 2 (740-20000 nM)
Strand notation (5' to 3'): a small letter for the sugar, then the base; units joined by * are phosphorothioate-linked, units joined directly phosphodiester-linked; [ ] holds rarer units or linkages, { } end groups; capitals alone tell only the bases. k = constrained ethyl (cEt); [5mC] = 5-methylcytosine; d = 2'-deoxy (DNA)
Readout: pIC50
Give bare numbers, as −log10 of the molar value.

Each substance below has a reported value. Please supply its pIC50.
1. 798733 (antisense k[5mC]*kG*k[5mC]*dG*dG*d[5mC]*dT*dG*dG*d[5mC]*dG*dG*dG*kT*kG*kG) [compound 798733]
2. 799070 (antisense kA*kG*kG*dG*dA*dA*dT*dA*dA*dG*dA*d[5mC]*dA*kA*kG*kG) [compound 799070]
3. 799712 (antisense kA*kT*kA*dG*dA*dT*dT*dA*dT*d[5mC]*d[5mC]*dA*dA*kG*kT*kA) [compound 799712]

1: 5.40; 2: 5.40; 3: 5.52

Dear reader, for each entry below, please note its pIC50.
1. 799406 (antisense kG*kG*kG*dA*dA*d[5mC]*dA*dT*dG*dG*d[5mC]*d[5mC]*dT*kT*kT*k[5mC]) [compound 799406]
2. 800031 (kA*kG*kA*dA*dA*d[5mC]*dA*d[5mC]*dA*dG*dT*dT*d[5mC]*k[5mC]*k[5mC]*kT; antisense) [compound 800031]

[5.52, 5.10]

Take each entry in turn and give its pIC50.
1. 830144 (antisense kG*kG*kG*dT*dG*dT*dG*d[5mC]*dA*d[5mC]*d[5mC]*dA*dG*kG*kT*kG) [compound 830144]
2. 830053 (kG*kG*kG*dT*dG*dA*dG*dT*dA*dA*d[5mC]*d[5mC]*dA*kG*k[5mC]*kT; antisense) [compound 830053]
3. 799669 (antisense kT*kA*kT*dG*dA*d[5mC]*dA*dG*dA*dT*dG*d[5mC]*d[5mC]*kA*kG*k[5mC]) [compound 799669]
4. 799067 (antisense kG*kG*kA*dT*dG*dA*dA*dA*dA*dT*dA*dA*dT*kT*kG*kG) [compound 799067]
5. 799607 (k[5mC]*k[5mC]*kA*dT*dT*dT*dA*d[5mC]*dA*dA*dA*dA*d[5mC]*kT*k[5mC]*kT; antisense) [compound 799607]
6. 790488 (kT*kT*k[5mC]*d[5mC]*dG*dA*dG*dG*dA*dA*dT*dG*d[5mC]*k[5mC]*kT*kG; antisense) [compound 790488]
7. 799089 (antisense kA*kG*k[5mC]*dA*dA*dT*dA*d[5mC]*dT*dG*dT*dG*dA*kG*kG*kG) [compound 799089]

1. 6.00
2. 5.70
3. 5.52
4. 5.05
5. 5.70
6. 5.15
7. 5.15

###

test system: human SMAD7 mRNA; assay: Antisense inhibition of human SMAD7 mRNA expression in Hep3B cells by 3-10-3 cEt gapmers, 10,000 nM, electroporation (Example 2); type: cell-based; conditions: Hep3B cells, electroporation with 10,000 nM antisense oligonucleotide, approximately 24 hours, primer probe set RTS5062, relative to untreated control cells
Strand notation (5' to 3'): a small letter for the sugar, then the base; units joined by * are phosphorothioate-linked, units joined directly phosphodiester-linked; [ ] holds rarer units or linkages, { } end groups; capitals alone tell only the bases. k = constrained ethyl (cEt); [5mC] = 5-methylcytosine; d = 2'-deoxy (DNA)
For each of the substances below, state its % inhibition of SMAD7 mRNA expression.
Give bare numbers, in %.

Examples with their reported % inhibition of SMAD7 mRNA expression follow.
798807 (kA*kT*k[5mC]*dT*dG*dA*dA*dA*dG*d[5mC]*d[5mC]*d[5mC]*d[5mC]*k[5mC]*k[5mC]*kA; antisense) [compound 798807]	64
799011 (k[5mC]*kA*kA*dA*dA*d[5mC]*dA*dA*dA*dG*dA*dG*d[5mC]*kA*k[5mC]*kG; antisense) [compound 799011]	35
772532 (antisense k[5mC]*kA*kG*d[5mC]*dA*dG*dG*d[5mC]*dG*d[5mC]*dA*dG*dG*k[5mC]*kG*kA) [compound 772532]	21

Required: % inhibition of SMAD7 mRNA expression, one value per substance below.
1. 798808 (kG*kG*kA*dA*dT*d[5mC]*dT*dG*dA*dA*dA*dG*d[5mC]*k[5mC]*k[5mC]*k[5mC]; antisense) [compound 798808]
2. 772568 (antisense kA*kG*k[5mC]*d[5mC]*dT*d[5mC]*dT*dT*dG*dA*d[5mC]*dT*dT*k[5mC]*k[5mC]*kG) [compound 772568]

1. 44
2. 82

Fill in % inhibition of SMAD7 mRNA expression for each of the 4 substances listed.
1. 799262 (antisense k[5mC]*kT*k[5mC]*dT*dT*dT*dG*d[5mC]*d[5mC]*d[5mC]*d[5mC]*dA*dA*kA*kA*k[5mC]) [compound 799262]
2. 799091 (antisense kA*k[5mC]*kT*dG*dG*dG*dT*dG*dA*dG*d[5mC]*dA*dA*kT*kA*k[5mC]) [compound 799091]
3. 799012 (kA*kT*kA*dA*dG*dA*dG*dA*d[5mC]*dA*d[5mC]*dA*dA*kA*kA*k[5mC]; antisense) [compound 799012]
4. 798758 (kG*k[5mC]*kT*dG*d[5mC]*dG*d[5mC]*dA*dG*dG*d[5mC]*dT*dG*k[5mC]*kG*k[5mC]; antisense) [compound 798758]

[0, 42, 43, 0]

###

So I've got a bunch of substances here, and I need their % inhibition of SMAD7 mRNA expression values.
Tested on: human SMAD7 mRNA
Experiment: Antisense inhibition of human SMAD7 mRNA expression in Hep3B cells by 3-10-3 cEt gapmers, 10,000 nM, electroporation (Example 2)
Format: cell-based
Conditions: Hep3B cells, electroporation, 10,000 nM antisense oligonucleotide, approximately 24 hours, RTS5062, relative to untreated control cells
Description: Antisense oligonucleotides were designed to target human SMAD7 mRNA and were tested for their effects on SMAD7 mRNA expression in vitro. […] After a treatment period of approximately 24 hours, RNA was isolated from the cells and SMAD7 mRNA levels were measured by quantitative real-time PCR. […] SMAD7 mRNA levels were adjusted according to total RNA content, as measured by RIBOGREEN®. […]
Strand notation (5' to 3'): a small letter for the sugar, then the base; units joined by * are phosphorothioate-linked, units joined directly phosphodiester-linked; [ ] holds rarer units or linkages, { } end groups; capitals alone tell only the bases. k = constrained ethyl (cEt); [5mC] = 5-methylcytosine; d = 2'-deoxy (DNA)
One number for each entry, in %.

Below, each entry is followed by its recorded % inhibition of SMAD7 mRNA expression result.
799693 (antisense kT*kT*kA*dT*dG*dA*d[5mC]*dA*d[5mC]*dA*dG*dT*dA*kA*k[5mC]*kA) [compound 799693]	17
799721 (antisense kG*kT*kA*dA*d[5mC]*dA*d[5mC]*dA*d[5mC]*dA*dG*d[5mC]*dA*kG*kA*kA) [compound 799721]	42
799636 (k[5mC]*kA*k[5mC]*dA*dG*dA*d[5mC]*dT*dG*d[5mC]*d[5mC]*dA*dA*kA*kT*k[5mC]; antisense) [compound 799636]	55
799659 (antisense kA*kA*kA*dT*dA*dA*d[5mC]*dT*dA*d[5mC]*dA*dA*dG*kT*kG*kG) [compound 799659]	57

# value lookup — system human SMAD7 mRNA, readout % inhibition of SMAD7 mRNA expression, item 799739 (antisense k[5mC]*kA*k[5mC]*d[5mC]*d[5mC]*d[5mC]*dT*dA*dT*d[5mC]*dA*dA*dA*kA*kA*kA) [compound 799739] 0

###

Test system: human SMAD7 mRNA
Assay: Dose-dependent inhibition of human SMAD7 mRNA expression in Hep3B cells (Example 3, Study 1 and 2)
Type: cell-based
Details: 1250.0 nM, electroporation, approximately 16 hours, Study 1
Description: The antisense oligonucleotides were tested in a series of experiments that had similar culture conditions as described below. Cells were plated at a density of 20,000 cells per well and transfected using electroporation with 0.31 μM, 1.25 μM, 5.00 μM, or 20.00 μM concentrations of antisense oligonucleotide, as specified in the Tables below. […] After a treatment period of approximately 16 hours, RNA was isolated from the cells and SMAD7 mRNA levels were measured by quantitative real-time PCR. […]
Strand notation (5' to 3'): a small letter for the sugar, then the base; units joined by * are phosphorothioate-linked, units joined directly phosphodiester-linked; [ ] holds rarer units or linkages, { } end groups; capitals alone tell only the bases. e = 2'-O-(2-methoxyethyl) (MOE); [5mC] = 5-methylcytosine; d = 2'-deoxy (DNA)
Readout: % inhibition of SMAD7 mRNA expression (%)
Numbers only, in %.

Past entries and their recorded results:
771769 (antisense eG*eG*e[5mC]*eT*eG*dG*dG*dA*dA*dT*d[5mC]*dA*dG*dA*dA*e[5mC]*eT*eT*eG*eG) [compound 771769]	0
771808 (antisense e[5mC]*e[5mC]*e[5mC]*e[5mC]*eA*dA*dA*dG*dT*d[5mC]*d[5mC]*dA*d[5mC]*dG*d[5mC]*eT*e[5mC]*eA*eT*eG) [compound 771808]	0

# context switch: different substance, same % inhibition of SMAD7 mRNA expression
Please look up its % inhibition of SMAD7 mRNA expression: 771778 (antisense eT*eG*eA*eG*eT*dA*dA*dA*d[5mC]*dA*dA*dT*dA*d[5mC]*d[5mC]*e[5mC]*eT*e[5mC]*eA*eG) [compound 771778] 0
